Measured values drawn from FireProtDB (doi:10.1016/j.bpj.2010.04.076) for this set.

B1: Adenylate kinase, P16304 (parent)
chain: MNLVLMGLPGAGKGTQGERIVEDYGIPHISTGDMFRAAMKEETPLGLEAKSYIDKGELVPDEVTIGIVKERLGKDDCERGFLLDGFPRTVAQAEALEEILEEYGKPIDYVINIEVDKDVLMERLTGRRICSVCGTTYHLVFNPPKTPGICDKDGGELYQRADDNEETVSKRLEVNMKQTQPLLDFYSEKGYLANVNGQQDIQDVYADVKDLLGGLKK

variants of: B1; conditions: Bacillus subtilis (strain 168); pH 7; Thermal; CD; KH2PO4 10mM; transition: 2; reversible: yes; structure 2EU8; whole UniProt chain shown
Entries annotated with measured change of melting temperature, mutant - wild type (higher = more stable)
Record the value in °C, omitting the unit from your answer.

Problem: Please give the measured change of melting temperature, mutant - wild type (higher = more stable) for this variant: G214R
Solution: 1.4

Problem: Quick one: Q199R G214A
Solution: 0.7
